run_description: qHTS assay for identifying genotoxic compounds that show differential cytotoxicity against isogenic chicken DT40 cell lines with known DNA damage response pathways - wild type cell line (AID 743012); also: nearly all actives have a fitted effect of over 60% in size
measurement_conditions: DT40 wild type chicken cells viability, CellTiter-Glo, 40 h; series mostly up to 68.4 µM
Records with an inconclusive call do not appear. Activity calls are given as the source filed them. Calls follow the shape of the dose curve; as a rule, active = well fitted cell-killing curve with a large enough effect in the repeat runs; inconclusive = weak or mixed curves, or effect the other way; inactive = no such curve, though single readings can be large or run the other way.
In this exercise, the only acceptable responses are active, inactive

See these solved cases before continuing.
molecule	classification
CCCCCC(O)/C=C/C=O (stereo not given)	inactive
C=C1CC[C@H](O)CC1=C/C=C1\CCC[C@]2(C)[C@@H]([C@H](C)CCCC(C)(C)O)CC[C@@H]12	active
NC(=O)C[C@@H](N)C(=O)O	inactive
O=C(CO)[C@@H](O)[C@H](O)[C@@H](O)C(=O)O	inactive
OCC(O)COc1ccc(Cl)cc1 (stereo not given)	inactive
C/C1=C2N=C(/C=C3N=C(/C(C)=C4\[N-][C@@](C)([C@@H]5N=C1[C@](C)(CCC(=O)NCC(C)OP(=O)(O)O[C@H]1[C@@H](O)[C@@H](n6cnc7cc(C)c(C)cc76)O[C@@H]1CO)[C@H]5CC(N)=O)[C@@](C)(CC(N)=O)[C@@H]4CCC(N)=O)[C@@](C)(CC(N)=O)[C@@H]\3CCC(N)=O)C(C)(C)[C@@H]/2CCC(N)=O.CC(=O)O.[Co] (stereo not given in full)	inactive
Cc1cc2nc3c(=O)[nH]c(=O)nc-3n(C[C@H](O)[C@H](O)[C@H](O)COP(=O)(O)OP(=O)(O)OC[C@H]3O[C@@H](n4cnc5c(N)ncnc54)[C@H](O)[C@@H]3O)c2cc1C	inactive
C=CCCCCCCCCC(=O)OC	inactive

Query: What outcome does the record of this test show for N[C@H](CC(=O)O)C(=O)O ?
Result: inactive

Query: What outcome does the record of this test show for CCCCC(=O)O[C@H]1CC[C@H]2[C@@H]3CCc4cc(O)ccc4[C@H]3CC[C@]12C ?
Result: active

Query: What outcome does the record of this test show for CCCCOC(=O)C(=O)Nc1cccc(-c2nn[nH]n2)c1 ?
Result: inactive

Query: What outcome does the record of this test show for COC(=O)CCC(=O)CN ?
Result: inactive

Query: What outcome does the record of this test show for Cc1c(N)nc(C(CC(N)=O)NCC(N)C(N)=O)nc1C(=O)NC(C(=O)NC(C)C(O)C(C)C(=O)NC(C(=O)NCCc1nc(-c2nc(C(=O)NCCCN[C@@H](C)c3ccccc3)cs2)cs1)C(C)O)C(O[C@@H]1O[C@@H](CO)[C@@H](O)[C@H](O)[C@@H]1O[C@H]1O[C@H](CO)[C@@H](O)[C@H](OC(N)=O)[C@@H]1O)c1cnc[nH]1 (stereo not given in full) ?
Result: active

Query: What outcome does the record of this test show for CNC(=O)c1c(I)c(C(=O)NCC(=O)Nc2c(I)c(C(=O)O)c(I)c(C(=O)NCCO)c2I)c(I)c(N(C)C(C)=O)c1I ?
Result: inactive

Query: What outcome does the record of this test show for CNc1cc(OC)c(C(=O)N[C@H]2CCN(Cc3ccccc3)[C@H]2C)cc1Cl ?
Result: active

* * *

run_description: qHTS assay to test for compound auto fluorescence at 535 nm (green) in HepG2 cell free culture (AID 720686)
measurement_conditions: Cell-free medium, green autofluorescence 485/535 nm; series mostly up to 46 µM
Active and inactive are the calls of the source. Calls follow the shape of the dose curve; as a rule, active = well fitted curve in the direction sought with a large enough effect in the repeat runs; inconclusive = weak or mixed curves; inactive = flat fitted curve, though single readings scatter.
metric_name: outcome

Some solved entries appear below for comparison.
> print(dat)
                                   compound  value.reported
1  CC(=O)N(CC(C)C(=O)O)c1c(I)cc(I)c(N)c1I (configuration not stated)        inactive
2               [O]=[Bi][O]C(=O)[O][Bi]=[O]        inactive
3  CN(CC(=O)N1CCOCC1)Cc1c(Cl)cccc1NC(=O)c1ccccc1        inactive
4            COc1ccc(/C=C/C(=O)OCCC(C)C)cc1        inactive

outcome reported for this compound CCCCCCCCCCCCOCCCN : inactive

outcome reported for this compound C=CCOc1ccc(CC(=O)O)cc1Cl : inactive

outcome reported for this compound CCN(CC)CCOCCOC(=O)C(CC)(CC)c1ccccc1 : inactive
